Tested on: PMA-induced ear edema
assay_protocol: Acute PMA-induced ear edema mouse model
Assay type: in vivo
test_parameters: 30 mpk i.p.
property_label: % Inhibition (%)

1) NC(=O)c1ccc(N2CCN(C3c4ccccc4-c4ccccc43)CC2)c(NC(=O)Nc2ccccc2)c1
52
2) NC(=O)c1ccc(N2CCN(C(c3ccc(F)cc3)c3ccc(F)cc3)CC2)c(NC(=S)NCc2ccccc2)c1
83
3) O=C(Nc1cc(C(=O)N2CCNCC2)ccc1N1CCN(C(c2ccccc2)c2ccccc2)CC1)NC1CCCCC1
84
4) O=C(Nc1ccccc1)Nc1cc(C(=O)N2CCNCC2)ccc1N1CCN(C(c2ccccc2)c2ccccc2)CC1
81
